B1: library; a variant is named by its letters at N, in order (parent)
chain: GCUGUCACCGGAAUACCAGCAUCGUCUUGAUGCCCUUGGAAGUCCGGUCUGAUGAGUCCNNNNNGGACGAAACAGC

# Variants of: B1
# assay text: normalized RNA/DNA level without ligand (relative to sTRSVctl = 100) (log10 (% of sTRSVctl)); higher = less ribozyme self-cleavage, higher mRNA level
# condition: HEK293T, reporter: mCherry (pCS4076), ligand present: no
Answer each item with its documented normalized RNA/DNA level without ligand (log10).
The answer should be a number; do not append a unit.

Note to self: normalized RNA/DNA level without ligand (log10) recorded for `CCCCA` was 1.9

Note to self: normalized RNA/DNA level without ligand (log10) recorded for `UACCA` was 1.82

Note to self: normalized RNA/DNA level without ligand (log10) recorded for `CGAUC` was 1.84

Note to self: normalized RNA/DNA level without ligand (log10) recorded for `AAUUG` was 1.75

Note to self: normalized RNA/DNA level without ligand (log10) recorded for `CGGGC` was 2.01

Note to self: normalized RNA/DNA level without ligand (log10) recorded for `UAGCG` was 1.9

Note to self: normalized RNA/DNA level without ligand (log10) recorded for `AUUUU` was 1.88

Note to self: normalized RNA/DNA level without ligand (log10) recorded for `UCCGG` was 2.05

Note to self: normalized RNA/DNA level without ligand (log10) recorded for `UUGUA` was 1.53

Note to self: normalized RNA/DNA level without ligand (log10) recorded for `AAAAC` was 1.77

Note to self: normalized RNA/DNA level without ligand (log10) recorded for `UCUUC` was 1.97
